# method: Half life in rat liver microsomes
# Type: ADME, Microsome
metric: half-life (min)
Provide the reading as a plain figure in min.

State the recorded half-life for this entry: `Cc1ccc(-c2c(C)nn3c(NCCCN(C)C)cc(C)nc23)cc1`
22.4
